System: DeltatarO mutant
assay_summary: S. aureus survival, RN4220 and DeltatarO strains – OD600, teichoic acid synthesis inhibitors, primary screen (AID 463173)
protocol_conditions: S. aureus RN4220 wild type/DeltatarO growth, OD600, 18 h, stronger effect = lower value, screened at 18.75 µg/mL (by protocol)
About 4,300 (8.3%) of roughly 52,000 compounds were called active. Shown is part of a subset that was picked to be rich in actives.
Items are presented alongside their recorded survival.
assay_metric: survival (%)

>>> measured_value("CN(C)c1ccc(CNC(=O)CN(C)S(=O)(=O)c2ccc3c(c2)c(=O)n(C)c(=O)n3C)cc1")
97
>>> measured_value("COCCCNC(=O)c1ccc2c(c1)N(Cc1ccccc1F)C(=O)c1ccccc1S2=O (stereo not given)")
83
>>> measured_value("Cc1ccc(-n2nc(C(=O)N3CCN(c4ccccc4F)CC3)c(=O)n(C)c2=O)cc1")
93
>>> measured_value("COc1cc(Cl)c(S(=O)(=O)N2CCN(c3c(C)cccc3C)CC2)cc1Cl")
69
>>> measured_value("O=C(c1cnn(-c2ccc(F)cc2)c1-n1cccc1)N1CCN(c2cccc(Cl)c2)CC1")
70
>>> measured_value("O=C(CS(=O)(=O)c1nc(-c2ccc(Cl)cc2)cn1-c1ccccc1)Nc1ccc(F)cc1F")
50
>>> measured_value("O=C(CS(=O)(=O)c1nc(-c2ccc(Cl)cc2)cn1-c1ccccc1)Nc1cccc(Cl)c1")
68
>>> measured_value("CC(C)CNC(=O)Cc1ccccc1")
65
>>> measured_value("CCC(=O)N1c2ccccc2CC1C(=O)NCc1ccc(OC(C)C)cc1 (stereo not given)")
97
>>> measured_value("CCOc1ccc(CCNC(=O)c2ccc3c(c2)nc2n3CCOC2)cc1OCC")
79

* * *

Items are presented alongside their recorded survival.
System: DeltatarO mutant
assay_summary: S. aureus survival, RN4220 and DeltatarO strains – OD600, teichoic acid synthesis inhibitors, primary screen (AID 463173)
protocol_conditions: S. aureus RN4220 wild type/DeltatarO growth, OD600, 18 h, stronger effect = lower value, screened at 18.75 µg/mL (by protocol)
Screen size: about 52,000 compounds; about 4,300 (8.3%) were called active. The sample holds actives, similar compounds and a random draw of the others, so the mix is not that of the screen.
assay_metric: survival (%)

>>> measured_value("CCOc1ccc(N2C(=O)CC(N3CCCCC3CC)C2=O)cc1 (stereo unspecified)")
53
>>> measured_value("Cc1nn(-c2ccccc2)c(-n2cccc2)c1C(=O)N1CCN(c2ccccc2)CC1")
83
>>> measured_value("COc1cc(N(C(=O)Cn2nnc3ccccc32)C(C(=O)NCC2CCCO2)c2ccc(F)cc2)ccc1-n1cnnn1 (stereo unspecified)")
105
>>> measured_value("CCc1nnc(NC(=O)CSc2nc3c([nH]c4ccccc43)c(=O)n2-c2ccc(F)cc2)s1")
84
>>> measured_value("COc1cccc(CNC(=O)c2ccc(-c3nc(CS(=O)(=O)c4ccccc4)c(C)o3)cc2)c1")
72
>>> measured_value("COC(=O)c1ccc(NCC(=O)c2ccccc2)cc1")
64
>>> measured_value("COc1cccc(NC(=O)C2CCN(c3ccc(Sc4ccc(C)cc4)nn3)CC2)c1")
49
>>> measured_value("CCNC(=S)N1CCC(C(=O)c2ccc(Cl)cc2)CC1")
84
>>> measured_value("CCOCCCNC(=O)c1ccc(-c2nc(CS(=O)(=O)c3ccccc3)c(C)o2)cc1")
66
>>> measured_value("COc1ccc(N(C(=O)Cn2nnc3ccccc32)C(C(=O)NCc2ccccc2)c2ccc(F)cc2)cc1 (stereo unspecified)")
42
>>> measured_value("COc1cccc(CNC(=O)c2nnc(Cc3ccc(Cl)cc3)o2)c1")
91
>>> measured_value("Cc1cccc(OCC(=O)Nc2ccccc2OCc2cc(=O)n3cc(C)ccc3n2)c1")
94
>>> measured_value("CCOC(=O)c1c(C)[nH]c(C)c1S(=O)(=O)N(C)CC(=O)Nc1cc(Cl)ccc1OC")
117
>>> measured_value("O=C(CSc1nc2ccccc2n1Cc1cccc(F)c1)N1CCN(c2ccc(F)cc2)CC1")
64
>>> measured_value("COc1cccc(C(=O)CN2CCN(S(=O)(=O)c3ccc(Cl)cc3)CC2)c1")
74
>>> measured_value("Cc1ccccc1Nc1c(-c2cccs2)nc2cccc(C)n12")
63
>>> measured_value("CCC1CCCCN1C1CC(=O)N(c2ccc(NC(C)=O)cc2)C1=O (stereo unspecified)")
96
>>> measured_value("COc1ccc2c(c1)-c1nc(NC(=O)c3ccc(OC)c(Br)c3)sc1CC2")
59
>>> measured_value("CC(=O)c1cccc(N(C(=O)Cn2nnc3ccccc32)C(C(=O)NCc2ccccc2)c2ccc(F)cc2)c1 (stereo unspecified)")
85
>>> measured_value("CCOc1ccc(C(=O)NCCSc2c(C)[nH]c3ccccc23)cc1OCC")
56
>>> measured_value("Cc1nc(SCC(=O)OCN2C(=O)c3ccccc3C2=O)n[nH]1")
80
>>> measured_value("O=C(O)C1CC(=O)N(CCCN2CCOCC2)C1 (stereo unspecified)")
96
>>> measured_value("CCOC(=O)c1c(C)[nH]c(C)c1S(=O)(=O)NCC(=O)Nc1cc(C)ccc1OC")
60
>>> measured_value("COc1ccc(Cl)cc1NC(=O)CN(c1cc(C)cc(C)c1)S(=O)(=O)c1c(C)n[nH]c1C")
9
>>> measured_value("CCCN(C(=O)C1CC1)c1nnc(-c2ccc(Cl)cc2)s1")
79
>>> measured_value("CC(=O)Nc1ccc(N(C(=O)Cn2nnc3ccccc32)C(C(=O)NCc2ccccc2)c2ccc(C)cc2)cc1 (stereo unspecified)")
38
>>> measured_value("Cc1ccccc1CNC(=O)c1ccc(CS(=O)Cc2ccc(Cl)cc2)o1 (stereo unspecified)")
79
>>> measured_value("O=C(Cn1c(=O)n2nc(-c3cccc(F)c3)nc2c2ccccc21)N1CCN(c2ccccc2F)CC1")
116
>>> measured_value("COc1ccc(Cl)cc1NC(=O)c1cnc(N2CCCCC2)c2ccccc12")
78
>>> measured_value("CCCNC(=O)c1ccc2c(c1)nc1n2CCCCC1")
94
>>> measured_value("CCOC(=O)c1scc(-c2ccc(C)cc2)c1S(=O)(=O)Nc1ccc(OC)c(Cl)c1")
77
>>> measured_value("CCOC(=O)c1scc(-c2ccc(C)cc2)c1S(=O)(=O)Nc1cc(Cl)ccc1OC")
-5
>>> measured_value("Cc1oc(-c2ccc(C(=O)NCCCOC(C)C)cc2)nc1CS(=O)(=O)c1ccccc1")
-4
>>> measured_value("COc1ccc(NC(=O)CN(c2cc(C)cc(C)c2)S(=O)(=O)c2c(C)noc2C)cc1Cl")
91
>>> measured_value("CCOc1ccc(N(C(=O)Cn2nnc3ccccc32)C(C(=O)NCc2ccccc2)c2ccc(OC)cc2)cc1 (stereo unspecified)")
52
>>> measured_value("CCc1ccccc1NC(=O)CN(c1ccc(OC)cc1)S(=O)(=O)c1c(C)n[nH]c1C")
74
>>> measured_value("O=C(c1ccc2c(c1)OCCO2)C1CCCCC1")
83
>>> measured_value("CSc1nc(NC(C)=O)nc(C)c1Br")
103
>>> measured_value("Cc1ccc(NC(=O)c2ccc3c(O)c(S(=O)(=O)c4ccccc4)c(=O)[nH]c3c2)cc1Cl")
78
>>> measured_value("COc1cccc(C(C(=O)NCc2ccccc2)N(C(=O)Cn2nnc3ccccc32)c2cccc(C(C)=O)c2)c1 (stereo unspecified)")
44
>>> measured_value("COc1ccc(NC(=O)COCc2cc(-c3ccco3)on2)cc1Cl")
112

* * *

Tested on: DeltatarO mutant
assay_summary: S. aureus survival, RN4220 and DeltatarO strains – OD600, teichoic acid synthesis inhibitors, primary screen (AID 463173)
protocol_conditions: S. aureus RN4220 wild type/DeltatarO growth, OD600, 18 h, stronger effect = lower value, screened at 18.75 µg/mL (by protocol)
In all, about 52,000 compounds went through this assay and about 4,300 (8.3%) were called active. The sample holds actives, similar compounds and a random draw of the others, so the mix is not that of the screen.
The label is 1 for survival below 60% and 0 for survival equal to or exceeding 60%.

>>> class_label("CCOC(=O)c1cc2c(=O)n3ccccc3nc2n(CCCOC)c1=NC(=O)C(C)Oc1ccccc1 (centres undefined)")
1
>>> class_label("CCOC(=O)c1cc2c(=O)n3ccccc3nc2n(C(C)C)c1=NC(=O)c1cc2ccccc2o1")
1
>>> class_label("CCCCOC(=O)c1ccc(NC(=O)CSc2nc3c(c(=O)[nH]2)CCC3)cc1")
1
>>> class_label("CCOC(=O)c1cc2c(=O)n3ccccc3nc2n(CCOC)c1=NC(=O)c1cc2ccccc2o1")
1
>>> class_label("CCOC(=O)/C(C)=C1\\NC(C)(C)Cc2ccccc21")
0
>>> class_label("CCOC(=O)c1cc2c(=O)n3ccccc3nc2n(CCCOC)c1=NC(=O)c1cc2ccccc2o1")
0
>>> class_label("CCOC(=O)c1cc2c(=O)n3ccccc3nc2n(C(C)C)c1=NC(=O)C(C)(C)Oc1ccc(Cl)cc1")
1
>>> class_label("CCOC(=O)c1cc2c(=O)n3ccccc3nc2n(C(C)C)c1=NC(=O)c1c(-c2c(F)cccc2Cl)noc1C")
0
>>> class_label("CCCn1c(=NC(=O)c2cc3ccccc3o2)c(C(=O)OCC)cc2c(=O)n3ccccc3nc21")
1
